Reported GI50 values are given for each entry in this list.
Test system: IGROV-1
Assay: NCI tumour cell line growth inhibition, 48 h
Counter-ions that a name gives are not always drawn. Active and inactive are the calls of the source. No stated cut-off is given here; in the data, active = GI50 up to about 1.1 µM and inactive = higher.
outcome_measure: GI50

{"compound": "C=CC(O)(CBr)CCC(Br)C(=C)C (stereo not given)", "outcome_measure": "GI50", "result": "> 10 µM (inactive)"}
{"compound": "COc1nn(Cc2ccccc2F)c2ccc([N+](=O)[O-])cc12", "outcome_measure": "GI50", "result": "> 100 µM (inactive)"}
{"compound": "CCN(CC)c1ccc2cc(-c3nnc(-c4ccccc4)[nH]3)c(=O)oc2c1", "outcome_measure": "GI50", "result": "17.7 µM (inactive)"}
{"compound": "c1ccc(COCC2OC3c4ccccc4COC3C2OCc2ccccc2)cc1 (stereo not given)", "outcome_measure": "GI50", "result": "> 100 µM (inactive)"}
{"compound": "Cc1ccccc1NC(=O)C(=O)CC(=O)c1ccc([N+](=O)[O-])cc1", "outcome_measure": "GI50", "result": "> 100 µM (inactive)"}
{"compound": "Nc1nc(Cl)cc(NCC2(CO)CCC(CCc3ccccc3)C2)n1 (stereo not given)", "outcome_measure": "GI50", "result": "17.5 µM (inactive)"}
{"compound": "Cc1c(C)c2cc3c(=O)c(CCl)coc3c(C)c2oc1=O", "outcome_measure": "GI50", "result": "> 100 µM (inactive)"}
{"compound": "COC(=O)c1cc(C)ccc1C1CN=NC12Cc1ccc(C)cc1C2=O (stereo not given)", "outcome_measure": "GI50", "result": "63.4 µM (inactive)"}
{"compound": "CC(C)=CCc1c(O)cc(O)c2c1OC(c1ccc(O)cc1)C(O)C2=O (stereo not given)", "outcome_measure": "GI50", "result": "32 µM (inactive)"}
{"compound": "CCc1n[nH]c(=O)n1CCCCCCCCn1c(CC)n[nH]c1=O", "outcome_measure": "GI50", "result": "> 100 µM (inactive)"}
{"compound": "CS/C(=N\\c1ccccc1Cl)NC(=O)c1ccc(Br)cc1", "outcome_measure": "GI50", "result": "62.8 µM (inactive)"}
{"compound": "CCNC(=O)COc1ccc(Cl)cc1Cl", "outcome_measure": "GI50", "result": "> 100 µM (inactive)"}
{"compound": "CC(=O)Nc1c(Nc2ccccc2)[nH]c(C)nc1=S", "outcome_measure": "GI50", "result": "> 100 µM (inactive)"}
{"compound": "CCOC(=O)C1=C(C)NC(C)=C(C(=O)OCC)C1c1ccc(C)cc1", "outcome_measure": "GI50", "result": "27 µM (inactive)"}
{"compound": "CCOC(=O)c1c2ccccc2n2c(=O)n(C)nnc12", "outcome_measure": "GI50", "result": "> 100 µM (inactive)"}
{"compound": "Cc1nc2ccc(NCCN(C)C)c3c(=O)c4cc(O)ccc4n1c23", "outcome_measure": "GI50", "result": "0.839 µM (active)"}
{"compound": "O=C(O)CN1C=C(C(=O)c2cc3ccccc3n2S(=O)(=O)c2ccccc2)CCC1", "outcome_measure": "GI50", "result": "37.2 µM (inactive)"}
{"compound": "Cc1cc(NS(=O)(=O)c2ccc(NC(=O)COC(=O)c3cccc4c(=O)c5ccccc5[nH]c34)cc2)no1", "outcome_measure": "GI50", "result": "> 100 µM (inactive)"}
{"compound": "Nc1nc(N)nc(CCCCc2nc(N)nc(N)n2)n1", "outcome_measure": "GI50", "result": "> 100 µM (inactive)"}
{"compound": "CC(=O)CCC#Cc1ccccc1C(=O)C(C)=[N+]=[N-]", "outcome_measure": "GI50", "result": "30 µM (inactive)"}
{"compound": "CN1CC[C@@]2(c3cccc(O)c3)CC(=O)/C(=C/c3ccccc3)[C@H]1C2.[O-][Cl+3]([O-])([O-])O", "outcome_measure": "GI50", "result": "13.7 µM (inactive)"}
{"compound": "Cc1cc(C)c2c(n1)S(=O)(=O)N(CCCN1CCN(c3cccc(Cl)c3)CC1)C(C(=O)c1ccccc1)=C2O", "outcome_measure": "GI50", "result": "40.3 µM (inactive)"}
{"compound": "O=C1c2ccccc2C(=O)N1Cc1ccccc1-c1c2nc(c(-c3ccccc3CN3C(=O)c4ccccc4C3=O)c3ccc([nH]3)c(-c3ccccc3CN3C(=O)c4ccccc4C3=O)c3nc(c(-c4ccccc4CN4C(=O)c5ccccc5C4=O)c4ccc1[nH]4)C=C3)C=C2", "outcome_measure": "GI50", "result": "> 100 µM (inactive)"}
{"compound": "NC(=S)N/N=C/c1cn(CCCl)c2ccccc12", "outcome_measure": "GI50", "result": "> 100 µM (inactive)"}
{"compound": "CCCCC/C(=N\\c1[nH]nnc1C(N)=O)OCC", "outcome_measure": "GI50", "result": "> 100 µM (inactive)"}
{"compound": "COc1ccc2nc(NCN3C(=O)c4ccccc4C3=O)sc2c1", "outcome_measure": "GI50", "result": "> 100 µM (inactive)"}
{"compound": "CCOc1cccc2sc(N)nc12", "outcome_measure": "GI50", "result": "> 100 µM (inactive)"}
{"compound": "Cc1c(Cl)ccc2[s+]snc12", "outcome_measure": "GI50", "result": "48.8 µM (inactive)"}
{"compound": "N#CCC(=O)N/N=C\\C(O)C(O)C(O)C(O)CO (stereo not given)", "outcome_measure": "GI50", "result": "> 100 µM (inactive)"}
{"compound": "O=C(N/N=C/c1ccc([N+](=O)[O-])cc1)Nc1ccc(C(=O)O)cc1", "outcome_measure": "GI50", "result": "33.1 µM (inactive)"}
{"compound": "Cc1cc(C)n(C(=CC(=O)C(Cl)Cl)n2nc(C)cc2C)n1", "outcome_measure": "GI50", "result": "9.64 µM (inactive)"}
{"compound": "C/C(CC(=O)Nc1ccc(Cl)cc1)=N\\NC(=O)C[n+]1ccccc1", "outcome_measure": "GI50", "result": "> 100 µM (inactive)"}
{"compound": "O=C(CSc1nnc(Cc2ccccc2)o1)Nc1cccc([N+](=O)[O-])c1", "outcome_measure": "GI50", "result": "> 100 µM (inactive)"}
{"compound": "Nc1ncnc2c1ncn2C1OC(CO)=CC1O (stereo not given)", "outcome_measure": "GI50", "result": "> 37.5 µM (inactive)"}
{"compound": "CC[C@]12CN3CCc4c([nH]c5ccccc45)[C@@](C(=O)OC)(c4cc5c(cc4OC)N(C)[C@H]4[C@@](O)(C(=O)OC)[C@H](OC(C)=O)[C@]6(CC)C=CCN7CC[C@]54[C@@H]76)CC(C3)[C@H]1O2 (stereo not given in full) [VINLEUROSINE SULFATE]", "outcome_measure": "GI50", "result": "0.441 µM (active)"}
{"compound": "COC(=O)C1=C(C(=O)OC)SC2(S1)C1=C(CCCC1)SC(C(=O)OC)=C2C(=O)OC", "outcome_measure": "GI50", "result": "8.32 µM (inactive)"}
{"compound": "N#CC1=C(N)OC2=C(CSc3ccccc32)C1c1ccc(Br)cc1 (stereo not given)", "outcome_measure": "GI50", "result": "6.97 µM (inactive)"}
{"compound": "CCOc1ccc(NC(=O)/C(=N\\NC(C)(C)C)C2C(=O)Nc3ccccc3[S+]2[O-])cc1 (stereo not given)", "outcome_measure": "GI50", "result": "> 100 µM (inactive)"}
{"compound": "N#CC1(C#N)NC(c2cccs2)C(C#N)(C#N)NC1c1cccs1 (stereo not given)", "outcome_measure": "GI50", "result": "30.3 µM (inactive)"}
{"compound": "O=C1C(Cl)C(c2ccccc2O)N1n1cnc2ccccc2c1=O (stereo not given)", "outcome_measure": "GI50", "result": "61.7 µM (inactive)"}

###

Tested on: OVCAR-5
Test: NCI tumour cell line growth inhibition, 48 h
Active and inactive are the calls of the source. Rule as the data show it: active = GI50 up to about 1.1 µM and inactive = higher.
Labels: active, inactive

{"molecule": "c1ccc(-c2cc3[nH]c4ccccc4[nH]c-3cc(-c3ccccc3)nn2)cc1", "assigned_class": "inactive"}
{"molecule": "CCCCCCCCCCC1OC([C@@H](O)CC[C@H](O)C2CC[C@@H](CCCCCCCC(O)CC3=CC(C)OC3=O)O2)CCC1O (some centres not stated)", "assigned_class": "inactive"}
{"molecule": "CCOC(=O)/C(C#N)=C1/C(O)=C(C(=O)OC)C(C(=O)OC)=C1C(=O)OC.c1ccncc1", "assigned_class": "inactive"}
{"molecule": "O=C(O)C(Cc1ccc(O)c([N+](=O)[O-])c1)N1C(=O)c2ccccc2C1=O (configuration not stated)", "assigned_class": "inactive"}
{"molecule": "O=C(C=P(c1ccccc1)(c1ccccc1)c1ccccc1)CC(=S)CC(=O)C=P(c1ccccc1)(c1ccccc1)c1ccccc1", "assigned_class": "inactive"}
{"molecule": "O=C1C(Br)=CC2(C=C1Br)CCNC1=C2C(=O)c2cccnc2C1=O", "assigned_class": "inactive"}
{"molecule": "CCc1n[nH]c(=O)n1CCCCCCCCn1c(CC)n[nH]c1=O", "assigned_class": "inactive"}
{"molecule": "CCOC(=O)c1ccc(-c2cc(C)no2)[nH]1", "assigned_class": "inactive"}
{"molecule": "COc1ccc(/C=N/N=C(\\N)NO)c(Cl)c1O", "assigned_class": "inactive"}
{"molecule": "CCc1nnc(-c2nsc3ccccc23)s1", "assigned_class": "inactive"}
{"molecule": "COc1cc([C@@H]2c3cc4c(cc3[C@@H](Nc3ccccc3C(=O)c3ccccc3)[C@H]3COC(=O)[C@H]23)OCO4)cc(OC)c1OC", "assigned_class": "active"}
{"molecule": "O=C(O)CCCC(=O)Nn1c(Cc2ccc(Cl)cc2)n[nH]c1=O", "assigned_class": "inactive"}
{"molecule": "Cc1ccc(-c2c3c(n(C4OC(CO)C(O)C(O)C4O)c(=S)c2C#N)CC(C)(C)CC3=O)cc1 (configuration not stated)", "assigned_class": "inactive"}
{"molecule": "Oc1c2c(nc3cc4c(cc13)OCO4)-c1ccccc1CCC2", "assigned_class": "inactive"}
{"molecule": "CC1=NN(C(=O)CC(=O)Nc2cccc(Cl)c2)C(=O)C1/N=N/c1ccc(C(=O)O)cc1 (configuration not stated)", "assigned_class": "inactive"}
{"molecule": "Cc1ccccc1NC(=O)C(=O)CC(=O)c1ccc([N+](=O)[O-])cc1", "assigned_class": "inactive"}
{"molecule": "Cn1c(=O)oc2cc(C(=O)CN3CCN(Cc4ccc5c(c4)OCO5)CC3)c(Cl)cc21", "assigned_class": "inactive"}
{"molecule": "CN(C)CCCCCNc1c2ccccc2nc2cccc([N+](=O)[O-])c12", "assigned_class": "active"}
{"molecule": "COc1ccc(C(=O)Nc2ccc(S(=O)(=O)NCC(=O)O)cc2)cc1", "assigned_class": "inactive"}
{"molecule": "CCC[C@H]1C(=O)N=C(N)N1C(=O)OCc1ccccc1", "assigned_class": "inactive"}
{"molecule": "CC(=O)Nc1c(Nc2ccccc2)[nH]c(C)nc1=S", "assigned_class": "inactive"}
{"molecule": "CC(C)[C@H](COC(C)(C)C)/N=C/N1CSc2ccccc21", "assigned_class": "inactive"}
{"molecule": "O=c1[nH]c(=O)n([C@@H]2C[C@H](CO)[C@H](O)C2)cc1/C=C/Br", "assigned_class": "inactive"}
{"molecule": "CCOP(=O)(OCC)/C(C#N)=C/c1cnc[nH]1", "assigned_class": "inactive"}
{"molecule": "Oc1cccc2ccc(SSc3ccc4cccc(O)c4n3)nc12", "assigned_class": "inactive"}
{"molecule": "Cn1c([C@H](C#N)C(=O)c2cc(O)ccc2[N+](=O)[O-])nc2ccccc21", "assigned_class": "inactive"}
{"molecule": "CCOP(=O)(OCC)[C@H]1OC(C)(C)O[C@@H]1CO", "assigned_class": "inactive"}

The measurements presented in this section are drawn from ChEMBL document CHEMBL1201862.
